# assayDetails: SAXS of mixtures of GMO and excipient/active ingredient immersed in PBS (liquid crystal phase and lattice size)
# Type: physicochemical
# conditionContext: concentration in GMO
experimentalEndpoint: Concentration at which V2(Pn3m) lattice size increased

In the examples that follow, each entry is paired with its recorded Concentration at which V2(Pn3m) lattice size increased.
- compound: "CC(C)c1c(C(=O)Nc2ccccc2)c(-c2ccccc2)c(-c2ccc(F)cc2)n1CC[C@@H](O)C[C@@H](O)CC(=O)O"
  result: "10-35%"
- compound: "O=C1NS(=O)(=O)c2ccccc21.[Na] [Saccharin sodium]"
  result: "5-10%"

Turning now to a further record.
Problem: Give the measured Concentration at which V2(Pn3m) lattice size increased for O=S(=O)([O-])NC1CCCCC1.[Na+] [Sodium cyclamate]
Result: 5-10%

----------
# assayDetails: SAXS of mixtures of GMO and excipient/active ingredient immersed in PBS (liquid crystal phase and lattice size)
# Assay type: physicochemical
# conditionContext: Concentration in GMO 1%; PBS buffer pH 6.8, ~22° C.
experimentalEndpoint: Phase structure

Example results:
- molecule: "CCCCCCCC/C=C\\CCCCCCCC(=O)OCCOCC(OCCO)C1OCC(OCCO)C1OCCO (stereo not drawn) [Tween 80]"
  Phase structure: "V2(Pn3m)"
- molecule: "CCCCCCCCCCCCOS(=O)(=O)[O-].[Na+] [SLS, sodium lauryl sulphate]"
  Phase structure: "V2(Pn3m)"
- molecule: "CC(C)c1nc(N(C)S(C)(=O)=O)nc(-c2ccc(F)cc2)c1/C=C/[C@@H](O)C[C@@H](O)CC(=O)O [Rosuvastatin]"
  Phase structure: "V2(Pn3m)"
- molecule: "CC(C)c1c(C(=O)Nc2ccccc2)c(-c2ccccc2)c(-c2ccc(F)cc2)n1CC[C@@H](O)C[C@@H](O)CC(=O)O [Atorvastatin]"
  Phase structure: "V2(Pn3m)"
- molecule: "O=S(=O)([O-])NC1CCCCC1.[Na+] [Sodium cyclamate]"
  Phase structure: "V2(Pn3m)"

Consider now this further molecule.
Problem: Report measured Phase structure; entry is O=C1NS(=O)(=O)c2ccccc21.[Na] [Saccharin sodium]
Result: V2(Pn3m)

----------
# assayDetails: SAXS of mixtures of GMO and excipient/active ingredient immersed in PBS (liquid crystal phase and lattice size)
# Format: physicochemical
# conditionContext: Concentration in GMO 10%; first value of the cell (first phase listed)
experimentalEndpoint: Lattice size (Å)

- molecule: "CC(C)c1c(C(=O)Nc2ccccc2)c(-c2ccccc2)c(-c2ccc(F)cc2)n1CC[C@@H](O)C[C@@H](O)CC(=O)O"
  unitsLabel: "Å"
  numericValue: 105
- molecule: "O=C1NS(=O)(=O)c2ccccc21.[Na] [Saccharin sodium]"
  unitsLabel: "Å"
  numericValue: 120
- molecule: "CC(C)c1nc(N(C)S(C)(=O)=O)nc(-c2ccc(F)cc2)c1/C=C/[C@@H](O)C[C@@H](O)CC(=O)O"
  unitsLabel: "Å"
  numericValue: 109
- molecule: "CCCCCCCCCCCCOS(=O)(=O)[O-].[Na+] [SLS, sodium lauryl sulphate]"
  unitsLabel: "Å"
  numericValue: 133
- molecule: "CCCCCCCC/C=C\\CCCCCCCC(=O)OCCOCC(OCCO)C1OCC(OCCO)C1OCCO (stereo not drawn)"
  unitsLabel: "Å"
  numericValue: 106
- molecule: "O=S(=O)([O-])NC1CCCCC1.[Na+] [Sodium cyclamate]"
  unitsLabel: "Å"
  numericValue: 113
